experiment: Average particle size and polydispersity index of lipid nanoparticles (dynamic light scattering); assay type: physicochemical; details: Table 4; Fluc mRNA-loaded lipid nanoparticles; TxT-5-5A14/DSPC/chol/PEG-DMG=50/3/47/1.5; SM-102, ALC-0315 or MC3/DSPC/chol/PEG-DMG=50/10/40/1.5 (mol%)
observable: ζ-average particle size (nm)
Answer in nm, number only, no unit symbol.

compound="CCCCCCCCCCCOC(=O)CCCCCN(CCO)CCCCCCCC(=O)OC(CCCCCCCC)CCCCCCCC [SM-102, reference compound]" reported_value=70.4

Entry CCCCC/C=C\C/C=C\CCCCCCCCC(CCCCCCCC/C=C\C/C=C\CCCCC)OC(=O)CCCN(C)C [MC3, DLin-MC3-DMA, reference compound] has what ζ-average particle size?
83.6

Field entry: CCCCCCCN(CCCCCCC)C(=O)CCCC(=O)OCC(COC(=O)CCCC(=O)N(CCCCCCC)CCCCCCC)(COC(=O)CCCC(=O)N(CCCCCCC)CCCCCCC)NC(=O)CCN1CCCCC1 [TxT-5-5A14]
113.8

Field entry: CCCCCCCCC(CCCCCC)C(=O)OCCCCCCN(CCCCO)CCCCCCOC(=O)C(CCCCCC)CCCCCCCC (stereo not shown) [ALC-0315, reference compound]
86.0

---

Entries and their mRNA encapsulation rate values follow.
Experiment: Encapsulation rate of lipid nanoparticles (Ribogreen)
Type: physicochemical
Conditions: Table 4; Fluc mRNA-loaded lipid nanoparticles; TxT-5-5A14/DSPC/chol/PEG-DMG=50/3/47/1.5; SM-102, ALC-0315 or MC3/DSPC/chol/PEG-DMG=50/10/40/1.5 (mol%)
Description: The encapsulation rate of the lipid nanoparticles was determined by measuring the amount of encapsulated nucleic acid (mRNA) using Ribogreen (manufactured by Life Technologies), which is an RNA intercalator. The mRNA amount was quantified based on a calibration curve prepared from a series of diluted mRNA solutions at known concentrations. […]
Answer in %, number only, no unit symbol.

Entry CCCCCCCCCCCOC(=O)CCCCCN(CCO)CCCCCCCC(=O)OC(CCCCCCCC)CCCCCCCC [SM-102, reference compound] has what mRNA encapsulation rate?
99.6

Field entry: CCCCCCCCC(CCCCCC)C(=O)OCCCCCCN(CCCCO)CCCCCCOC(=O)C(CCCCCC)CCCCCCCC (stereo not shown) [ALC-0315, reference compound]
98.4

Field entry: CCCCC/C=C\C/C=C\CCCCCCCCC(CCCCCCCC/C=C\C/C=C\CCCCC)OC(=O)CCCN(C)C [MC3, DLin-MC3-DMA, reference compound]
98.8

Field entry: CCCCCCCN(CCCCCCC)C(=O)CCCC(=O)OCC(COC(=O)CCCC(=O)N(CCCCCCC)CCCCCCC)(COC(=O)CCCC(=O)N(CCCCCCC)CCCCCCC)NC(=O)CCN1CCCCC1
99.4

---

assay: Encapsulation rate of lipid nanoparticles (Ribogreen); type: physicochemical; conditions: Table 3; Fluc mRNA-loaded lipid nanoparticles; TxT/DSPC/chol/PEG-DMG=50/3/47/1.5 (mol%)
observable: mRNA concentration (µg/µL)
Answer in µg/µL, number only, no unit symbol.

compound="CCCCCCCCN(CCCCCCCC)C(=O)CCCC(=O)OCC(COC(=O)CCCC(=O)N(CCCCCCCC)CCCCCCCC)(COC(=O)CCCC(=O)N(CCCCCCCC)CCCCCCCC)NC(=O)CCN1CCCCC1 [TxT-5-5A16]" observable="mRNA concentration" reported_value=0.023
compound="CCCCCCN(CCCCCC)C(=O)CCCC(=O)OCC(COC(=O)CCCC(=O)N(CCCCCC)CCCCCC)(COC(=O)CCCC(=O)N(CCCCCC)CCCCCC)NC(=O)CCN1CCCCC1 [TxT-5-5A12]" observable="mRNA concentration" reported_value=0.019
compound="CCCCCCC(CCCCCC)COC(=O)CCCC(=O)OCC(COC(=O)CCCC(=O)OCC(CCCCCC)CCCCCC)(COC(=O)CCCC(=O)OCC(CCCCCC)CCCCCC)NC(=O)CCN1CCCCC1 [TxT-5-5E14]" observable="mRNA concentration" reported_value=0.022
compound="CCCCC(CC)CN(CC(CC)CCCC)C(=O)CCCC(=O)OCC(COC(=O)CCCC(=O)N(CC(CC)CCCC)CC(CC)CCCC)(COC(=O)CCCC(=O)N(CC(CC)CCCC)CC(CC)CCCC)NC(=O)CCN1CCCCC1 (centres unmarked) [TxT-5-5A16b]" observable="mRNA concentration" reported_value=0.019
compound="CCCCCCCN(CCCCCCC)C(=O)CCCC(=O)OCC(COC(=O)CCCC(=O)N(CCCCCCC)CCCCCCC)(COC(=O)CCCC(=O)N(CCCCCCC)CCCCCCC)NC(=O)CCN1CCCCC1 [TxT-5-5A14]" observable="mRNA concentration" reported_value=0.022

Entry CCCCCCC(CCCC)CNC(=O)CCCC(=O)OCC(COC(=O)CCCC(=O)NCC(CCCC)CCCCCC)(COC(=O)CCCC(=O)NCC(CCCC)CCCCCC)NC(=O)CCN1CCCCC1 (stereo not drawn) [TxT-5-5A12β] has what mRNA concentration?
0.023

Field entry: CCCCCCCCC(CCCCCC)CNC(=O)CCCC(=O)OCC(COC(=O)CCCC(=O)NCC(CCCCCC)CCCCCCCC)(COC(=O)CCCC(=O)NCC(CCCCCC)CCCCCCCC)NC(=O)CCN1CCCCC1 (stereo not drawn) [TxT-5-5A16β]
0.018

Field entry: CCCCCCCCCCN(CCCCCCCCCC)C(=O)CCC(=O)OCC(COC(=O)CCC(=O)N(CCCCCCCCCC)CCCCCCCCCC)(COC(=O)CCC(=O)N(CCCCCCCCCC)CCCCCCCCCC)NC(=O)CCN1CCCCC1 [TxT-5-4A20]
0.019

---

Entries and their mRNA concentration values follow.
assay: Encapsulation rate of lipid nanoparticles (Ribogreen); type: physicochemical; settings: Table 5; EGFP mRNA-loaded lipid nanoparticles; TxT/DSPC/chol/PEG-DMG=50/3/47/1.5 (mol%); total flow rate 3.0 mL/min
Answer in µg/µL, number only, no unit symbol.

Example entries and their recorded answers appear below.
molecule="CCCCCCC(CCCC)CNC(=O)CCCC(=O)OCC(COC(=O)CCCC(=O)NCC(CCCC)CCCCCC)(COC(=O)CCCC(=O)NCC(CCCC)CCCCCC)NC(=O)CCN1CCCCC1 (centres unmarked)" observable="mRNA concentration" endpoint_unit=µg/µL reported_value=0.016
molecule="CCCCC(CC)CN(CC(CC)CCCC)C(=O)CCCC(=O)OCC(COC(=O)CCCC(=O)N(CC(CC)CCCC)CC(CC)CCCC)(COC(=O)CCCC(=O)N(CC(CC)CCCC)CC(CC)CCCC)NC(=O)CCN1CCCCC1 (centres unmarked) [TxT-5-5A16b]" observable="mRNA concentration" endpoint_unit=µg/µL reported_value=0.020

Entry CCCCCCCN(CCCCCCC)C(=O)CCCC(=O)OCC(COC(=O)CCCC(=O)N(CCCCCCC)CCCCCCC)(COC(=O)CCCC(=O)N(CCCCCCC)CCCCCCC)NC(=O)CCN1CCCCC1 has what mRNA concentration?
0.023

Field entry: CCCCCCCCC(CCCCCC)CNC(=O)CCCC(=O)OCC(COC(=O)CCCC(=O)NCC(CCCCCC)CCCCCCCC)(COC(=O)CCCC(=O)NCC(CCCCCC)CCCCCCCC)NC(=O)CCN1CCCCC1 (centres unmarked)
0.016

Field entry: CCCCCCN(CCCCCC)C(=O)CCCC(=O)OCC(COC(=O)CCCC(=O)N(CCCCCC)CCCCCC)(COC(=O)CCCC(=O)N(CCCCCC)CCCCCC)NC(=O)CCN1CCCCC1
0.019

Field entry: CCCCCCCCCCN(CCCCCCCCCC)C(=O)CCC(=O)OCC(COC(=O)CCC(=O)N(CCCCCCCCCC)CCCCCCCCCC)(COC(=O)CCC(=O)N(CCCCCCCCCC)CCCCCCCCCC)NC(=O)CCN1CCCCC1
0.021

Field entry: CCCCCCCCN(CCCCCCCC)C(=O)CCCC(=O)OCC(COC(=O)CCCC(=O)N(CCCCCCCC)CCCCCCCC)(COC(=O)CCCC(=O)N(CCCCCCCC)CCCCCCCC)NC(=O)CCN1CCCCC1
0.022

Field entry: CCCCCCC(CCCCCC)COC(=O)CCCC(=O)OCC(COC(=O)CCCC(=O)OCC(CCCCCC)CCCCCC)(COC(=O)CCCC(=O)OCC(CCCCCC)CCCCCC)NC(=O)CCN1CCCCC1
0.024

---

experiment: Average particle size and polydispersity index of lipid nanoparticles (dynamic light scattering); type: physicochemical; details: Table 3; Fluc mRNA-loaded lipid nanoparticles; TxT/DSPC/chol/PEG-DMG=50/3/47/1.5 (mol%)
observable: number average particle size (nm)
Answer in nm, number only, no unit symbol.

molecule=CCCCCCCCN(CCCCCCCC)C(=O)CCCC(=O)OCC(COC(=O)CCCC(=O)N(CCCCCCCC)CCCCCCCC)(COC(=O)CCCC(=O)N(CCCCCCCC)CCCCCCCC)NC(=O)CCN1CCCCC1 endpoint_unit=nm reported_value=93.3
molecule="CCCCC(CC)CN(CC(CC)CCCC)C(=O)CCCC(=O)OCC(COC(=O)CCCC(=O)N(CC(CC)CCCC)CC(CC)CCCC)(COC(=O)CCCC(=O)N(CC(CC)CCCC)CC(CC)CCCC)NC(=O)CCN1CCCCC1 (stereo not drawn) [TxT-5-5A16b]" endpoint_unit=nm reported_value=61.6

Attention now shifts to the item below.
Entry CCCCCCC(CCCC)CNC(=O)CCCC(=O)OCC(COC(=O)CCCC(=O)NCC(CCCC)CCCCCC)(COC(=O)CCCC(=O)NCC(CCCC)CCCCCC)NC(=O)CCN1CCCCC1 (stereo not drawn) has what number average particle size?
72.8

Each recorded value in this set is attributed to patent EP4722195A1.
